# target.or.test.system: GST-cdc25A phosphatase (Homo sapiens)
# Sequence (P30304 1-524): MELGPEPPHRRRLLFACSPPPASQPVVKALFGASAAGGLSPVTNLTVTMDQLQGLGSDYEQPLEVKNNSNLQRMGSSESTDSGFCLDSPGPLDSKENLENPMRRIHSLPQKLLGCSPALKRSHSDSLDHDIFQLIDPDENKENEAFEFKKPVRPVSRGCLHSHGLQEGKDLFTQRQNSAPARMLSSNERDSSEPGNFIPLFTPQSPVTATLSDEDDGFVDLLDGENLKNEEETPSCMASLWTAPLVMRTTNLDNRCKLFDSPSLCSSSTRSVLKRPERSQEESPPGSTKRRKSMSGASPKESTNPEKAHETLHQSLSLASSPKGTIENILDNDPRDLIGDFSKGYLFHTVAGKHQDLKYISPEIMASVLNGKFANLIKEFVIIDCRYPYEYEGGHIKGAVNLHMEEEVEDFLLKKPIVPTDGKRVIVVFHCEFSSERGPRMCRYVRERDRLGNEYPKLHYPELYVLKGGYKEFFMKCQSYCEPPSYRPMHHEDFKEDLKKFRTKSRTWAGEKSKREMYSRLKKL
readout.type: IC50 (µM)
Entry rule: numbers only, all in µM.

Sample [Na+].[Na+].[Na+].[O]=[V]([O-])([O-])[O-] [vanadate, sodium orthovanadate] ; IC50 observed: 20
